This collection of values is drawn from patent US20240327497A1.

Target: canine FcRn (FcRn large subunit with canine beta-2-microglobulin) (canine)
Assay: SPR pH 5.9, IgG coupled to C1 chip, 1:1 kinetic fit
parameter_measured: kon (M⁻¹ s⁻¹)
Your answer should be a plain number; it is taken to be in M⁻¹ s⁻¹.

get_value(item= anti-NGF canine IgGB antibody, Fc variant A426Y + Y436H (antibody, part only; not given: anti-NGF variable domains and light chain, not shown: another chain or arm of the molecule; small tags and cut ends) Fc: APEMLGGPSVFIFPPKPKDTLLIARTPEVTCVVVDLDPEDPEVQISWFVDGKQMQTAKTQPREEQFNGTYRVVSVLPIGHQDWLKGKQFTCKVNNKALPSPIERTISKARGQAHQPSVYVLPPSREELSKNTVSLTCLIKDFFPPDIDVEWQSNGQQEPESKYRTTPPQLDEDGSYFLYSKLSVDKSRWQRGDTFICYVMHEALHNHHTQESLSHSPGK , readout=kon) returns 1.06e+06

get_value(item= anti-NGF canine IgGB antibody, Fc variant A426H + D312P (antibody, part only; not given: Anti-NGF variable domains, not shown: another chain or arm of the molecule; small tags and cut ends) Fc: APEMLGGPSVFIFPPKPKDTLLIARTPEVTCVVVDLDPEDPEVQISWFVDGKQMQTAKTQPREEQFNGTYRVVSVLPIGHQPWLKGKQFTCKVNNKALPSPIERTISKARGQAHQPSVYVLPPSREELSKNTVSLTCLIKDFFPPDIDVEWQSNGQQEPESKYRTTPPQLDEDGSYFLYSKLSVDKSRWQRGDTFICHVMHEALHNHYTQESLSHSPGK , readout=kon) returns 1.31e+06

get_value(item= anti-NGF canine IgGB antibody, Fc variant A426H + Y436H (antibody, part only; not given: anti-NGF variable domains and light chain, not shown: another chain or arm of the molecule; small tags and cut ends) Fc: APEMLGGPSVFIFPPKPKDTLLIARTPEVTCVVVDLDPEDPEVQISWFVDGKQMQTAKTQPREEQFNGTYRVVSVLPIGHQDWLKGKQFTCKVNNKALPSPIERTISKARGQAHQPSVYVLPPSREELSKNTVSLTCLIKDFFPPDIDVEWQSNGQQEPESKYRTTPPQLDEDGSYFLYSKLSVDKSRWQRGDTFICHVMHEALHNHHTQESLSHSPGK , readout=kon) returns 808000

get_value(item= anti-NGF canine IgGB antibody, Fc variant A426Y (antibody, part only; not given: Anti-NGF variable domains, not shown: another chain or arm of the molecule; small tags and cut ends) Fc: APEMLGGPSVFIFPPKPKDTLLIARTPEVTCVVVDLDPEDPEVQISWFVDGKQMQTAKTQPREEQFNGTYRVVSVLPIGHQDWLKGKQFTCKVNNKALPSPIERTISKARGQAHQPSVYVLPPSREELSKNTVSLTCLIKDFFPPDIDVEWQSNGQQEPESKYRTTPPQLDEDGSYFLYSKLSVDKSRWQRGDTFICYVMHEALHNHYTQESLSHSPGK , readout=kon) returns 878000

get_value(item= anti-NGF canine IgGB antibody, Fc variant A426H (antibody, part only; not given: Anti-NGF variable domains, not shown: another chain or arm of the molecule; small tags and cut ends) Fc: APEMLGGPSVFIFPPKPKDTLLIARTPEVTCVVVDLDPEDPEVQISWFVDGKQMQTAKTQPREEQFNGTYRVVSVLPIGHQDWLKGKQFTCKVNNKALPSPIERTISKARGQAHQPSVYVLPPSREELSKNTVSLTCLIKDFFPPDIDVEWQSNGQQEPESKYRTTPPQLDEDGSYFLYSKLSVDKSRWQRGDTFICHVMHEALHNHYTQESLSHSPGK , readout=kon) returns 1.24e+06
